Assign protein stability index to each entry below.
B1: IFRG15 (parent)
chain: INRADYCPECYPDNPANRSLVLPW

- Variants of: B1
- assay.remarks: protein stability index of a GFP-peptide fusion (GPS, HEK-293T) (PSI 1-6); higher = more stable;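 further: lentivirally expressed fusions sorted by FACS into six bins by GFP to DsRed ratio, PSI derived from sequencing read proportions per bin multiplied by bin number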
- test.parameters: c terminus: a fixed tail appended

protein stability index in this record for INGADYCPECYPDNPANRSLVLPW [R3G] : 2.65

Record summary for INRADYCPECYPDNPANRSPVLPW [L20P] : reported protein stability index = 2.31

// sample INRADLCPECYPDNPANRSLVLPW [Y6L] , its protein stability index was 2.05

Form field protein stability index, entry INQADYCPECYPDNPANRSLVLPW [R3Q] : 2.32

// sample INRADYCPEYYPDNPANRSLVLPW [C10Y] , its protein stability index was 2.31

Record INRADTCPECYPDNPANRSLVLPW [Y6T] , field protein stability index: 3.14

Entry INAADYCPECYPDNPANRSLVLPW [R3A] — recorded protein stability index = 2.42

The recorded protein stability index for INRADYCPECYPDNLANRSLVLPW [P15L] is 1.97

# variant INRADYCPECYPNNPANRSLVLPW [D13N] ; its protein stability index = 2.08

Measured protein stability index of INRADACPECYPDNPANRSLVLPW [Y6A] : 2.62
